Form field: AC50 (one value per entry).
MEASUREMENT_TARGET: Histamine H2 receptor (Homo sapiens); note: assay procedure not described here
Sequence (P25021 whole entry): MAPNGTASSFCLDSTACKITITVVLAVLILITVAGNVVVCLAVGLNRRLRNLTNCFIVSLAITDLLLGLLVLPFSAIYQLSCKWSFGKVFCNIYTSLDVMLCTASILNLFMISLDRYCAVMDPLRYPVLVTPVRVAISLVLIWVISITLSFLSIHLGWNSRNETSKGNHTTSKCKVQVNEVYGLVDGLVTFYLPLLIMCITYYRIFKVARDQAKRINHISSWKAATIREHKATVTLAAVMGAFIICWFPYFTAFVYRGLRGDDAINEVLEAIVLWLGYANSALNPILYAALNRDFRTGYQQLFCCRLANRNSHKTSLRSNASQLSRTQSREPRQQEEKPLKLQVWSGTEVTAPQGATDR
Assay type: functional, cell-based

In the examples that follow, each entry is paired with its recorded AC50.
# COMPOUND, AC50
data = [
    ("CC1(C)S[C@@H]2[C@H](NC(=O)C(C(=O)O)c3ccccc3)C(=O)N2[C@H]1C(=O)O (some centres undefined) [CARBENICILLIN]", "> 30 µM"),
    ("CN(C)CCCN1c2ccccc2CCc2ccccc21 [IMIPRAMINE]", "> 10 µM"),
]

The value of AC50 measured for the compound CC(=O)[C@H]1CC[C@H]2[C@@H]3C[C@H](C)C4=CC(=O)CC[C@]4(C)[C@H]3[C@@H](O)C[C@]12C [MEDRYSONE] turned out to be > 10 µM

The value of AC50 measured for the compound CC(Cc1cccc(C(F)(F)F)c1)NCCOC(=O)c1ccccc1 (centres undefined) [BENFLUOREX] turned out to be > 30 µM
